// data source = patent US20240158446A1

target: UniProt P01116; assay: Binding to KRAS by surface plasmon resonance (SPR), Single Cycle Kinetics; settings: SPR, Single Cycle Kinetics, GDP-bound KRAS wild-type protein; read-out: KRAS KD
pKd: −log10 of the molar value.

{"itemSmiles": "CC[C@H](C)[C@@H]1NC(=O)[C@H](CC(C)C)N(C)C(=O)C[C@@H](C(=O)N2CCOCC2)N(C)C(=O)[C@H](C2CCCC2)N(C)C(=O)C2(CCC2)NC(=O)[C@@H]2C[C@@H](C(F)(F)F)CN2C(=O)[C@H](CCc2cc(F)c(C(F)(F)F)c(F)c2)NC(=O)CN(C)C(=O)[C@H](Cc2ccc(C(F)(F)F)cc2)N2CCCCC[C@@H](C2=O)N(C)C(=O)CN(C)C1=O", "pKd": 8.77}
{"itemSmiles": "CC[C@H](C)[C@@H]1NC(=O)[C@H](CC2CC2)N(C)C(=O)C[C@@H](C(=O)N(C)C)N(C)C(=O)[C@H](C2CCCC2)N(C)C(=O)C2(CC(C)(C)C2)NC(=O)[C@@H]2C[C@H](C)CN2C(=O)[C@H](CCc2ccc(C(F)(F)F)c(OC)c2)NC(=O)CN(C)C(=O)[C@H](Cc2ccc(C)cc2)N2CC/C=C\\C[C@@H](C2=O)N(C)C(=O)CN(C)C1=O", "pKd": 9.89}
{"itemSmiles": "CC[C@H](C)[C@@H]1NC(=O)[C@@H]2CCCCCc3ccc(cc3)C[C@@H](C(=O)N(C)CC(=O)N[C@@H](CCc3ccc(C(F)(F)F)c(OC)c3)C(=O)N3CC4(CC4)C[C@H]3C(=O)NC3(CC(C)(C)C3)C(=O)N(C)[C@@H](C3CCCC3)C(=O)N(C)[C@H](C(=O)N(C)C)CC(=O)N2C)N2CC/C=C\\C[C@@H](C2=O)N(C)C(=O)CN(C)C1=O", "pKd": 10.60}

====

biological target: GDP-bound KRAS wild-type protein (Homo sapiens, UniProt P01116); test: Binding to KRAS by surface plasmon resonance (SPR), Single Cycle Kinetics; conditions: SPR, Single Cycle Kinetics, GDP-bound KRAS wild-type protein; read-out: KRAS KD
Sequence (P01116 whole entry): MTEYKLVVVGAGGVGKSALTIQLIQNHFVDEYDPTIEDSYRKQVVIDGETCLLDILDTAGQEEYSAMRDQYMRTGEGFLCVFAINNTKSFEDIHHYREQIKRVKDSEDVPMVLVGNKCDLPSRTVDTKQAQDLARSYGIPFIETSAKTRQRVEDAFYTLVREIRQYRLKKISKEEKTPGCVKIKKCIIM
pKd: −log10 of the molar value.
Label criterion not met if pKd falls below 9; label criterion met in every other case.

{"itemSmiles": "CCO[C@@H]1C[C@H]2C(=O)NC3(CCC3)C(=O)N(C)[C@@H](C3CCCC3)C(=O)N3CCC[C@@H]3CC(=O)N(C)[C@@H](CC3CC3)C(=O)N[C@@H]([C@@H](C)CC)C(=O)N(C)CC(=O)N(C)[C@H]3C/C=C\\CCN(C3=O)[C@@H](Cc3ccc(C(F)(F)F)cc3)C(=O)N(C)CC(=O)N[C@@H](CCc3cc(F)c(C(F)(F)F)c(F)c3)C(=O)N2C1", "answerLabel": "criterion met"}
{"itemSmiles": "CCCO[C@@H]1C[C@H]2C(=O)NC3(CC(C)(C)C3)C(=O)N(C)[C@@H](C3CCCC3)C(=O)N(C)[C@H](C(=O)N3CCCCC3)CC(=O)N(C)[C@H]3CCCc4ccc(cc4)C[C@@H](C(=O)N(C)CC(=O)N[C@@H](CCc4ccc(C(F)(F)F)c(OC)c4)C(=O)N2C1)N1CC/C=C\\C[C@@H](C1=O)N(C)C(=O)CN(C)C(=O)[C@H]([C@@H](C)CC)NC3=O", "answerLabel": "criterion met"}
{"itemSmiles": "CCC[C@H]1C(=O)N[C@@H]([C@@H](C)CC)C(=O)N(C2CC2)CC(=O)N(C)[C@H]2C/C=C\\CCN(C2=O)[C@@H](Cc2ccc(C(F)(F)F)cc2)C(=O)N(C)CC(=O)N[C@@H](CCc2cc(F)c(C(F)(F)F)c(F)c2)C(=O)N2C[C@H](OCC)C[C@H]2C(=O)N(C)C2(CCC2)C(=O)N(C)[C@@H](C2CCCC2)C(=O)N(C)[C@H](C(=O)N2CCCCC2)CC(=O)N1C", "answerLabel": "criterion not met"}
{"itemSmiles": "C=CCN1CC(=O)N(C)[C@H]2C/C=C\\CCN(C2=O)[C@@H](Cc2ccc(C(F)(F)F)cc2)C(=O)N(C)CC(=O)N[C@@H](CCc2ccc(C(F)(F)F)c(OC)c2)C(=O)N2C[C@H](OCC)C[C@H]2C(=O)NC2(CC(C)(C)C2)C(=O)N(C)[C@@H](C2CCCC2)C(=O)N(C)[C@H](C(=O)N(C)C)CC(=O)N(C)[C@@H](CCC)C(=O)N[C@@H]([C@@H](C)CC)C1=O", "answerLabel": "criterion met"}
